Values were extracted from paper PMC7819943.

# targetOfAssay: OsWRKY34 (Oryza sativa, UniProt Q0JBA9 1-250)
# Sequence (Q0JBA9 entry or part of it): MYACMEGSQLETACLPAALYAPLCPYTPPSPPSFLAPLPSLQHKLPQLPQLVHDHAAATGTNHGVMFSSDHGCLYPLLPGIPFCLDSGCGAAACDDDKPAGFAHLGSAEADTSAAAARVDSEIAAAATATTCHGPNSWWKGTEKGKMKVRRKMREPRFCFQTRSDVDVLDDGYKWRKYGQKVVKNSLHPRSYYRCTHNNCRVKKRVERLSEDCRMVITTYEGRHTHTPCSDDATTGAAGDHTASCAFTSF
# procedureText: protein-binding microarray (RPBM); PBS, 2% BSA, 51.3 ng/ul salmon testes DNA, 50 uM zinc acetate, 200 nM TF, 25 C, 1 h; high values mean tight binding
# statedConditions: protein: recombinant; tags: N-terminal polyhistidine and DsRed monomer fusion (pET32a); label: CyDye5-dUTP incorporated in the synthesized complementary strand; 3' TTTTT single-stranded linker to array surface; dsDNA, one strand shown
In all, about 68,000 sequences were measured (“fluorescence intensity (a.u.)”: median about 9,100, highest 2% from about 16,000 on). What follows is part of a selection rich in the highest values, with near analogues and random picks from the rest.
Let's look at some sequences and their measured binding signal.

- chainSequence: "GCTTGTTGTGGGCTGTGGACTGGGTGTGTGTGTGTGCTTTCGGAGTCACCTAGTGCAG"
  targetOfAssay: "OsWRKY34 (Oryza sativa, UniProt Q0JBA9 1-250)"
  measuredMetric: "binding signal"
  reported: "9420 fluorescence intensity (a.u.)"
- chainSequence: "AATTTTTTTTCAGCTGATCGCCACTTTATTCTTTTCATACCGGAGTCACCTAGTGCAG"
  targetOfAssay: "OsWRKY34 (Oryza sativa, UniProt Q0JBA9 1-250)"
  measuredMetric: "binding signal"
  reported: "10200 fluorescence intensity (a.u.)"
- chainSequence: "CATGTGTTTACTGGGGTGGTTGTTGTAACAAAATTGAGTACGGAGTCACCTAGTGCAG"
  targetOfAssay: "OsWRKY34 (Oryza sativa, UniProt Q0JBA9 1-250)"
  measuredMetric: "binding signal"
  reported: "9360 fluorescence intensity (a.u.)"
- chainSequence: "GAGGGAGGGAGGGAGGGAGACCGCGAGTGTGAGTGACTGCCGGAGTCACCTAGTGCAG"
  targetOfAssay: "OsWRKY34 (Oryza sativa, UniProt Q0JBA9 1-250)"
  measuredMetric: "binding signal"
  reported: "10200 fluorescence intensity (a.u.)"
- chainSequence: "ATTTTCAAAATATTTGACACTGTTGACTTTTTAGTACATACGGAGTCACCTAGTGCAG"
  targetOfAssay: "OsWRKY34 (Oryza sativa, UniProt Q0JBA9 1-250)"
  measuredMetric: "binding signal"
  reported: "9840 fluorescence intensity (a.u.)"

Input line: Would you kindly share the measured binding signal for GATGTACTGAACTGTTTTTTTTTTCGTTTTTAATTTCTAGCGGAGTCACCTAGTGCAG ?
Output line: 8550 fluorescence intensity (a.u.)

Input line: Query: binding signal; subject: AATTTCGTTTTTAATACGCCCAGTGAAATTTGCTGTCTAGCGGAGTCACCTAGTGCAG
Output line: 17500 fluorescence intensity (a.u.)

Input line: binding signal for TTAGATGTGGCCAGTTTTGATTTCTAGCTTATAGGATCGTCGGAGTCACCTAGTGCAG ?
Output line: 9000 fluorescence intensity (a.u.)

Input line: Find the recorded binding signal belonging to GTTCATCAATCTACTGTACTGGCCTCCTTCTCAGCTCTCACGGAGTCACCTAGTGCAG and report it.
Output line: 9300 fluorescence intensity (a.u.)

Input line: I am curious: what binding signal value has been reported for CGGGTGGGGATGGGCTGGATCTGGATTGATTGGGAGTGTTCGGAGTCACCTAGTGCAG ?
Output line: 15200 fluorescence intensity (a.u.)

---

# targetOfAssay: OsWRKY34 (Oryza sativa, UniProt Q0JBA9 1-250)
# procedureText: protein-binding microarray (RPBM); PBS, 2% BSA, 51.3 ng/ul salmon testes DNA, 50 uM zinc acetate, 200 nM TF, 25 C, 1 h; high values mean tight binding
# statedConditions: protein: recombinant; tags: N-terminal polyhistidine and DsRed monomer fusion (pET32a); label: CyDye5-dUTP incorporated in the synthesized complementary strand; 3' TTTTT single-stranded linker to array surface; dsDNA, one strand shown
Over roughly 68,000 sequences, “fluorescence intensity (a.u.)” has its median near 9,100; the highest 2% begin near 16,000. The full list was thinned out, with the highest values kept by preference.
Below, each entry is listed with its recorded binding signal.

Use these answered entries as a reference point.
- chainSequence: "GCTCCGCCTGCCAGATCCATATGAGCCACCTGCGCCGCTACGGAGTCACCTAGTGCAG"
  binding signal: "8720 fluorescence intensity (a.u.)"
- chainSequence: "CTCCCGCCGTCTCCGTCACCGTCTACCGTTTGCTCCAGTGCGGAGTCACCTAGTGCAG"
  binding signal: "9530 fluorescence intensity (a.u.)"
- chainSequence: "AACATAACTGTCTTCTTCCATTTGTATGTCATGTTTCTGTCGGAGTCACCTAGTGCAG"
  binding signal: "10700 fluorescence intensity (a.u.)"

Input line: binding signal of GTTTGTCCCTTTTGACATATGAACTCTTCTCCATGATTTCCGGAGTCACCTAGTGCAG on OsWRKY34 (Oryza sativa, UniProt Q0JBA9 1-250)?
Output line: 8060 fluorescence intensity (a.u.)

Input line: So what binding signal did CTCCGTTTTTTAATAGATGACGCCGTTGACTTTTTCTCACCGGAGTCACCTAGTGCAG get with OsWRKY34 (Oryza sativa, UniProt Q0JBA9 1-250)?
Output line: 27800 fluorescence intensity (a.u.)

Input line: Record CATGGTGACATGTTGTGGGGCTGTGTCTTGTGGGTACAGTCGGAGTCACCTAGTGCAG : what is its binding signal with OsWRKY34 (Oryza sativa, UniProt Q0JBA9 1-250)?
Output line: 8650 fluorescence intensity (a.u.)

Input line: Record lookup: for OsWRKY34 (Oryza sativa, UniProt Q0JBA9 1-250), what binding signal belongs to TTCACCCTCACTTTATTCATCTATAGTAGTTTCATCAGTTCGGAGTCACCTAGTGCAG ?
Output line: 8060 fluorescence intensity (a.u.)

Input line: Could you share what binding signal was measured for ACTCCGGCGGGTTAGGGTTTGGGGTTGGGGTGAGGGTAGGCGGAGTCACCTAGTGCAG , tested on OsWRKY34 (Oryza sativa, UniProt Q0JBA9 1-250)?
Output line: 10900 fluorescence intensity (a.u.)

Input line: Missing value: binding signal, OsWRKY34 (Oryza sativa, UniProt Q0JBA9 1-250), entry GCGATGGGAGGTGGGCGACGCGAGGGAGAGGGGAGAGGGGCGGAGTCACCTAGTGCAG . Fill in?
Output line: 18500 fluorescence intensity (a.u.)

---

# targetOfAssay: OsWRKY34 (Oryza sativa, UniProt Q0JBA9 1-250)
# procedureText: protein-binding microarray (RPBM); PBS, 2% BSA, 51.3 ng/ul salmon testes DNA, 50 uM zinc acetate, 200 nM TF, 25 C, 1 h; high values mean tight binding
# statedConditions: protein: recombinant; tags: N-terminal polyhistidine and DsRed monomer fusion (pET32a); label: CyDye5-dUTP incorporated in the synthesized complementary strand; 3' TTTTT single-stranded linker to array surface; dsDNA, one strand shown
The full ranking holds about 68,000 sequences; the median of “fluorescence intensity (a.u.)” is about 9,100, and the highest 2% start at about 16,000. This excerpt belongs to a sample that is enriched for the highest values.
measuredMetric: binding signal

- chainSequence: "GCCATGAAACCTCCTTTGCTCACTGCTTTGGAACCATACTCGGAGTCACCTAGTGCAG"
  binding signal: "9020 fluorescence intensity (a.u.)"
- chainSequence: "TTCACACCGTCGTATTTGCCACTTTACTGACGCTCGAAGCCGGAGTCACCTAGTGCAG"
  binding signal: "8060 fluorescence intensity (a.u.)"
- chainSequence: "GTATGGTACAGCACATTTCTCTGTTCAAGTGTTCATTATGCGGAGTCACCTAGTGCAG"
  binding signal: "8610 fluorescence intensity (a.u.)"
- chainSequence: "CCCCACATCTTTTGCTAGCATGCCCCTACCCATTCATATTCGGAGTCACCTAGTGCAG"
  binding signal: "10500 fluorescence intensity (a.u.)"
- chainSequence: "GCCGCCACCGCAACCTACCGCCGCCGCGGCAAGCCCAAGCCGGAGTCACCTAGTGCAG"
  binding signal: "8960 fluorescence intensity (a.u.)"
- chainSequence: "TACACCCTTGGGCCCACCTGTCAACCTCTCACCCTATATTCGGAGTCACCTAGTGCAG"
  binding signal: "11900 fluorescence intensity (a.u.)"
- chainSequence: "CATGTGCTAAAAAGTCAACGGTATCAAACATTTTTAAACGCGGAGTCACCTAGTGCAG"
  binding signal: "15800 fluorescence intensity (a.u.)"
- chainSequence: "GCTAAATACCAGCGAAGCAGTCGCCCGCGCAAACGCGCGCCGGAGTCACCTAGTGCAG"
  binding signal: "8220 fluorescence intensity (a.u.)"

Query sequence follows.
Input line: Kindly state the measured binding signal obtained for CTCCTACTGCCTACCGCCGACGCAGAACTCCGTGGGTTACCGGAGTCACCTAGTGCAG with OsWRKY34 (Oryza sativa, UniProt Q0JBA9 1-250).
Output line: 8210 fluorescence intensity (a.u.)
